Data origin: paper PMC5700166

Please provide measured binding signal for the entries that follow.
# target_system: GST-Dm-Relish (Drosophila melanogaster, UniProt Q94527 99-473)
# Sequence: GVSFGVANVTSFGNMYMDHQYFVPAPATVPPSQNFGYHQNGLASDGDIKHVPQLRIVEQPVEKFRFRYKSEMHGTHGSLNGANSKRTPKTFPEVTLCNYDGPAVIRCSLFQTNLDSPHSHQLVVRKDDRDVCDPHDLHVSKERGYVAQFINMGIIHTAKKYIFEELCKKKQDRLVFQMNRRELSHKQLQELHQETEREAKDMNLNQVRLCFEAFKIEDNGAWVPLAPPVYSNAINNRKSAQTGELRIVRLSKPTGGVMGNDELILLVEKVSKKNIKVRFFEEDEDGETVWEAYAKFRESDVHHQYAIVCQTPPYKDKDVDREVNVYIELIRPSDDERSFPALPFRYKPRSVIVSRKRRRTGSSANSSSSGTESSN
# assay_info: protein-binding microarray (PBM); PBM: ~300 nM protein, 6 mM HEPES pH 7.8, 80 mM KCl, 0.5 mM EDTA, 0.5 mM EGTA, 6% glycerol, 35 ng/ul poly-dIdC, 1% milk, 1 h, room temperature; Ap Aiptasia and Nv Nematostella (sea anemones) / Co Capsaspora / Aq Amphimedon (sponge) / Dm Drosophila / Hu human; RHD is the Rel homology domain; high values mean tight binding
# reported_conditions: dsDNA, one strand shown
Numbers only, in z-score.

>  <sequence_chain>
CCGATTAACATCAGGTAATCACCTGATGTTAATCGGGTCTTGATTCGCTTGACGCTGCTG

>  <binding signal / z-score>
5.6

$$$$
>  <sequence_chain>
CCGATTAACATCAGGGAAGACCCTGATGTTAATCGGGTCTTGATTCGCTTGACGCTGCTG

>  <binding signal / z-score>
7.97

$$$$
>  <sequence_chain>
CCGATTAACATCAAAAATTCCGGTGATGTTAATCGGGTCTTGATTCGCTTGACGCTGCTG

>  <binding signal / z-score>
2.45

$$$$
>  <sequence_chain>
CCGATTAACATCACGTACTCCCCTGATGTTAATCGGGTCTTGATTCGCTTGACGCTGCTG

>  <binding signal / z-score>
4

$$$$
>  <sequence_chain>
CCGATTAACATCAAACTTCCCCGTGATGTTAATCGGGTCTTGATTCGCTTGACGCTGCTG

>  <binding signal / z-score>
7.92

$$$$

Could I get binding signal for every one of these entries?
1. CCGATTAACATCAGGAAATCCCATGATGTTAATCGGGTCTTGATTCGCTTGACGCTGCTG
2. CCGATTAACATCAGGAATTTACCTGATGTTAATCGGGTCTTGATTCGCTTGACGCTGCTG
3. CCGATTAACATCACGGGAAACTCTGATGTTAATCGGGTCTTGATTCGCTTGACGCTGCTG
4. CCGATTAACATCAAGATATTCCCTGATGTTAATCGGGTCTTGATTCGCTTGACGCTGCTG
5. CCGATTAACATCAGGCCACCCCCTGATGTTAATCGGGTCTTGATTCGCTTGACGCTGCTG

Reply:
1. 8.1
2. 4.54
3. 1.55
4. 2.34
5. 5.42

Could I get binding signal for every one of these entries?
1. CCGATTAACATCACAAAAACCCCTGATGTTAATCGGGTCTTGATTCGCTTGACGCTGCTG
2. CCGATTAACATCAGGGGAACTCATGATGTTAATCGGGTCTTGATTCGCTTGACGCTGCTG
3. CCGATTAACATCAGGAAGTACCCTGATGTTAATCGGGTCTTGATTCGCTTGACGCTGCTG
4. CCGATTAACATCAGAAAACCCCCTGATGTTAATCGGGTCTTGATTCGCTTGACGCTGCTG
5. CCGATTAACATCAAGGAACTCCCTGATGTTAATCGGGTCTTGATTCGCTTGACGCTGCTG

Reply:
8.1
6.03
6.69
10
5.06

Could I get binding signal for every one of these entries?
1. CCGATTAACATCACTTTTCCCCCTGATGTTAATCGGGTCTTGATTCGCTTGACGCTGCTG
2. CCGATTAACATCAAAAATTCCGCTGATGTTAATCGGGTCTTGATTCGCTTGACGCTGCTG
3. CCGATTAACATCAAAAGCCCCCCTGATGTTAATCGGGTCTTGATTCGCTTGACGCTGCTG
4. CCGATTAACATCAAATTCCCAGCTGATGTTAATCGGGTCTTGATTCGCTTGACGCTGCTG
5. CCGATTAACATCAGGGTATTTTATGATGTTAATCGGGTCTTGATTCGCTTGACGCTGCTG
6. CCGATTAACATCAGAAAATTCCATGATGTTAATCGGGTCTTGATTCGCTTGACGCTGCTG
7. CCGATTAACATCATGTGGTTCTCTGATGTTAATCGGGTCTTGATTCGCTTGACGCTGCTG
8. CCGATTAACATCAGGGGGTGGTATGATGTTAATCGGGTCTTGATTCGCTTGACGCTGCTG

Reply:
3.73
1.22
8.42
3.73
5.65
1.53
1.1
2.01

Could I get binding signal for every one of these entries?
1. CCGATTAACATCACAGTTTCCCCTGATGTTAATCGGGTCTTGATTCGCTTGACGCTGCTG
2. CCGATTAACATCAGGACTTCCCCTGATGTTAATCGGGTCTTGATTCGCTTGACGCTGCTG
3. CCGATTAACATCAAAATTTTCCTTGATGTTAATCGGGTCTTGATTCGCTTGACGCTGCTG

Reply:
1. 3.35
2. 9.98
3. 2.92
